biological target: CYP3A4 (Homo sapiens, UniProt P08684); assay: KI and kinact determination with recombinant CYP3A4; type: in vitro ADME; details: read-out: KI for inactivation of CYP3A4 (midazolam); recombinant human CYP3A4
Sequence (P08684 2-503 limits assumed): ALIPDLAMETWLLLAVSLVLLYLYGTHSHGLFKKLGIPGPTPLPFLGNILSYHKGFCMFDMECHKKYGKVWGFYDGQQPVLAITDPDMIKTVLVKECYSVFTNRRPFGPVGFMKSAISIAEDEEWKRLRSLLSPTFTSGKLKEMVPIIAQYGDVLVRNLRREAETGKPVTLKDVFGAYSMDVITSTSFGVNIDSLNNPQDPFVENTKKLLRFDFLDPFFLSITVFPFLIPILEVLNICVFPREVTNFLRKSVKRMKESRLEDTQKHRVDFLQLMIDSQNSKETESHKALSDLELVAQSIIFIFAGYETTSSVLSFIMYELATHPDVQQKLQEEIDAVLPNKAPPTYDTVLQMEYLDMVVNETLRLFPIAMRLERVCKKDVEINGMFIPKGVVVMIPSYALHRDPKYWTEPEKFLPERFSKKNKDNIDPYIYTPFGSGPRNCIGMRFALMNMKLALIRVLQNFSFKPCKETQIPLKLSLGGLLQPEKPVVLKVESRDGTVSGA
Property Measured: KI (inactivation) (µM)
Value expressed in µM; do not type the unit.

Summary for this molecule, C=CC(C)(C)c1cc(/C=C/C(=O)c2ccc(O)cc2)c(OC)cc1O [Licochalcone A, licochalcone A] : KI (inactivation) is 2.22

###

target: CYP3A4 (midazolam) (Homo sapiens, UniProt P08684); assay: KI and kinact determination in human liver microsomes; assay type: in vitro ADME; conditions: read-out: KI for inactivation of CYP3A4 (midazolam); human liver microsomes
Sequence (P08684 whole entry): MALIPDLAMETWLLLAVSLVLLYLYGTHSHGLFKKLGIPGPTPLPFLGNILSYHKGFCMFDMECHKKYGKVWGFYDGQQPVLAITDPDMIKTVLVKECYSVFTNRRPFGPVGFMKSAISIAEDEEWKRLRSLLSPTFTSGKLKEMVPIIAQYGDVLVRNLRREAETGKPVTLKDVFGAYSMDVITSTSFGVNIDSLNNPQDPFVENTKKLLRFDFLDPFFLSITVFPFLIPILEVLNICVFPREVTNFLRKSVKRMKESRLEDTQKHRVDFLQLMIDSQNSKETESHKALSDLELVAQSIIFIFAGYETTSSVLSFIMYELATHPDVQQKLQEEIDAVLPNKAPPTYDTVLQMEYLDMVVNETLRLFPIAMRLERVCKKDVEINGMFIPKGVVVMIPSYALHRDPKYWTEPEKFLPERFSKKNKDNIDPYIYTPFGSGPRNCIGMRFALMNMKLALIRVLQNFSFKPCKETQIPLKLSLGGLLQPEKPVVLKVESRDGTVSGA
Property Measured: KI (inactivation) (µM)
Value expressed in µM; do not type the unit.

Summary for this molecule, `C=CC(C)(C)c1cc(/C=C/C(=O)c2ccc(O)cc2)c(OC)cc1O` : KI (inactivation) is 116
